- Test system: Enterococcus faecium
- ASSAY NOTES: Antimicrobial activity against vancomycin-susceptible Enterococcus faecium 568 isolate
- Assay type: functional
VALUE KIND: MIC (µg/mL)

{"columns": ["COMPOUND", "ASSAY SYSTEM", "QUANTITATIVE READOUT"],
 "data": [
  ["CN[C@H](CC(C)C)C(=O)N[C@H]1C(=O)N[C@@H](CC(N)=O)C(=O)N[C@H]2C(=O)N[C@H]3C(=O)N[C@H](C(=O)N[C@H](C(=O)O)c4cc(O)cc(O)c4-c4cc3ccc4O)[C@H](O[C@@H]3C[C@@](C)(N)[C@H](O)[C@@H](C)O3)c3ccc(cc3)Oc3cc2cc(c3O[C@H]2O[C@@H](CO)[C@H](O)[C@@H](O)[C@@H]2O[C@H]2C[C@](C)(N)[C@@H](O)[C@H](C)O2)Oc2ccc(cc2Cl)[C@H]1O", "Enterococcus faecium", 0.5],
  ["CN[C@H](CC(C)C)C(=O)N[C@H]1C(=O)N[C@@H](CC(N)=O)C(=O)N[C@H]2C(=O)N[C@H]3C(=O)N[C@H](C(=O)N[C@H](C(=O)NC4C5CC6CC(C5)CC4C6)c4cc(O)cc(O)c4-c4cc3ccc4O)[C@H](O[C@@H]3C[C@@](C)(N)[C@H](O)[C@@H](C)O3)c3ccc(cc3)Oc3cc2cc(c3O[C@H]2O[C@@H](CO)[C@H](O)[C@@H](O)[C@@H]2O[C@H]2C[C@](C)(N)[C@@H](O)[C@H](C)O2)Oc2ccc(cc2Cl)[C@H]1O (some centres undefined)", "Enterococcus faecium", 1],
  ["CN[C@H](CC(C)C)C(=O)N[C@H]1C(=O)N[C@@H](CC(N)=O)C(=O)N[C@H]2C(=O)N[C@H]3C(=O)N[C@H](C(=O)N[C@H](C(=O)NC4C5CC6CC(C5)CC4C6)c4cc(O)cc(O)c4-c4cc3ccc4O)[C@H](O)c3ccc(c(Cl)c3)Oc3cc2cc(c3O[C@H]2O[C@@H](CO)[C@H](O)[C@@H](O)[C@@H]2O[C@H]2C[C@@](C)(N)C(O)[C@@H](C)O2)Oc2ccc(cc2Cl)[C@H]1O (some centres undefined)", "Enterococcus faecium", 0.5],
  ["CN[C@H](CC(C)C)C(=O)N[C@H]1C(=O)N[C@@H](CC(N)=O)C(=O)N[C@H]2C(=O)N[C@H]3C(=O)N[C@H](C(=O)N[C@H](C(=O)NC(C)C4C5CC6CC(C5)CC4C6)c4cc(O)cc(O)c4-c4cc3ccc4O)[C@H](O[C@@H]3C[C@@](C)(N)[C@H](O)[C@@H](C)O3)c3ccc(cc3)Oc3cc2cc(c3O[C@H]2O[C@@H](CO)[C@H](O)[C@@H](O)[C@@H]2O[C@H]2C[C@](C)(N)[C@@H](O)[C@H](C)O2)Oc2ccc(cc2Cl)[C@H]1O (some centres undefined)", "Enterococcus faecium", 0.5]
]}
